Measured target: GABA-A receptor; alpha-1/beta-3/gamma-2 (Homo sapiens, UniProt P14867+P18507+P28472)
Sequence (P14867 whole entry): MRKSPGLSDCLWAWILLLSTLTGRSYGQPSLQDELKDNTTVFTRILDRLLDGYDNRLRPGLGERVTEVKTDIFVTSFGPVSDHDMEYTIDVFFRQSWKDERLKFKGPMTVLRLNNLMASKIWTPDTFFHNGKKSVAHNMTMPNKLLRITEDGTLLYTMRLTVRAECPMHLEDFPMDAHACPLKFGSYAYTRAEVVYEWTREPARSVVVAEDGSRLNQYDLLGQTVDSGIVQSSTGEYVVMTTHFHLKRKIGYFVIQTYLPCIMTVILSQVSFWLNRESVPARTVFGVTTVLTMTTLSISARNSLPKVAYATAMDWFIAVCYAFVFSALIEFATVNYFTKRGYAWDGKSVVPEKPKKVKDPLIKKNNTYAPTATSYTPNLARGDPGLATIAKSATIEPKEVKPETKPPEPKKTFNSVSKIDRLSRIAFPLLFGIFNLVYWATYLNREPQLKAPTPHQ
Sequence (P18507 whole entry): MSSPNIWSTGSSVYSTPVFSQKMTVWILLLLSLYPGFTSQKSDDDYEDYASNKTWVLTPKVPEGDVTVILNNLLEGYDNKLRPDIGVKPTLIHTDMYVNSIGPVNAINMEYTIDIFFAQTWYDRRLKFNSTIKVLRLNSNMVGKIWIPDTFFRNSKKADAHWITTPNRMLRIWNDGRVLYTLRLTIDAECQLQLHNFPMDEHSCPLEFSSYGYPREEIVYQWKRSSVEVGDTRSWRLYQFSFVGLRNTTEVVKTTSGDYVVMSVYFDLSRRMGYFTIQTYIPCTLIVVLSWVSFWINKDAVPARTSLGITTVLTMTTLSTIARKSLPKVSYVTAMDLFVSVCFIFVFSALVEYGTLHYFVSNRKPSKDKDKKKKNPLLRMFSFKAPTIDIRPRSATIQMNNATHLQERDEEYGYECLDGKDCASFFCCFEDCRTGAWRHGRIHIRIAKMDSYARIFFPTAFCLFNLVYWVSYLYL
Sequence (P28472 whole entry): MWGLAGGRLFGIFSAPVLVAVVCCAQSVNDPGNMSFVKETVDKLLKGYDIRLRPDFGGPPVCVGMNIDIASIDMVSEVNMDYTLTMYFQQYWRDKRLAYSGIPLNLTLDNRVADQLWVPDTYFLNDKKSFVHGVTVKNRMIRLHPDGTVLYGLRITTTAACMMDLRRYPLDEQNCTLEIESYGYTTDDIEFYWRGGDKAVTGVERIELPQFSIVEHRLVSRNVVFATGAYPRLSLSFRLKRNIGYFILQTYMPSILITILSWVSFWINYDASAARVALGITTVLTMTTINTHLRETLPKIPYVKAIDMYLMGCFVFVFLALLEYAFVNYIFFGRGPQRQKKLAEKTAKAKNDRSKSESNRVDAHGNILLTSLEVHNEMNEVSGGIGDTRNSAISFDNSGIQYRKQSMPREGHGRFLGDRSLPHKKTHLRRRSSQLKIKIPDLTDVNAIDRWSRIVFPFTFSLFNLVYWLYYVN
Assay protocol: Binding affinity towards human alpha-1-beta-3-gamma-2 GABA-A receptor using [3H]Ro-151788 expressed in L(tk-) cells
Could you please mark Criterion met for values of Ki below 60 nM and Criterion not met for values at or above it?

Please review the entries below; each comes with its answer.
Compound: Cc1cccc(COc2nn3c(-c4ccccc4)nnc3c3c2C2CCC3CC2)n1
Category: Criterion not met
//
Compound: Cc1cccc(COc2nn3c(-c4nc(-c5ccncc5)no4)nnc3c3c2C2CCC3CC2)n1
Category: Criterion not met
//
Compound: Cc1cc(-c2nnc3c4c(c(OCc5ccccn5)nn23)CCCC4)no1
Category: Criterion met
//
Compound: Cc1cc(-c2nnc3c4ccccc4c(OCc4ccccn4)nn23)no1
Category: Criterion met

stdin: Item Cc1cccc(COc2nn3c(-c4cc(C)on4)nnc3c3c2C2CCC3C2)n1 (configuration not stated) : Ki beneath 60 nM, strictly?
stdout: Criterion not met

stdin: Another compound: Cc1noc(-c2nnc3c4c(c(OCc5ccc(C)c(C)n5)nn23)C2CCC4CC2)n1
stdout: Criterion met

stdin: Another compound: Cc1cccc(COc2nn3c(-c4ccccn4)nnc3c3c2C2CCC3CC2)n1
stdout: Criterion not met

stdin: Another compound: Cc1cccc(COc2nn3c(-c4nc(C(C)C)no4)nnc3c3c2C2CCC3CC2)n1
stdout: Criterion not met

stdin: Another compound: Cc1cccc(COc2nn3c(-c4ccccc4)nnc3c3ccccc23)n1
stdout: Criterion met

stdin: Another compound: Cc1cccc(COc2nn3c(-c4nc(-c5ccccc5)no4)nnc3c3c2C2CCC3CC2)n1
stdout: Criterion not met

stdin: Another compound: Cc1cccc(COc2nn3c(-c4ncnn4C)nnc3c3c2C2CCC3CC2)n1
stdout: Criterion not met

stdin: Another compound: CCc1noc(-c2nnc3c4c(c(OCc5cccc(C)n5)nn23)C2CCC4CC2)n1
stdout: Criterion not met

stdin: Another compound: Cc1noc(-c2nnc3c4c(c(OCc5ncc[nH]5)nn23)C2CCC4CC2)n1
stdout: Criterion not met

stdin: Another compound: Cc1cccc(COc2nn3c(-c4csc(C)n4)nnc3c3c2C2CCC3CC2)n1
stdout: Criterion not met

stdin: Another compound: Cc1cccc(COc2nn3c(-c4nc(C)no4)nnc3c3c2C2CCC3CC2)n1
stdout: Criterion not met

stdin: Another compound: Cc1cc(-c2nnc3c4c(c(OCc5ccccn5)nn23)C2CCC4C2)no1 (configuration not stated)
stdout: Criterion met

* * *

Measured target: GABA-A receptor; alpha-1/beta-3/gamma-2 (Homo sapiens, UniProt P14867+P18507+P28472)
Sequence (P14867 whole entry): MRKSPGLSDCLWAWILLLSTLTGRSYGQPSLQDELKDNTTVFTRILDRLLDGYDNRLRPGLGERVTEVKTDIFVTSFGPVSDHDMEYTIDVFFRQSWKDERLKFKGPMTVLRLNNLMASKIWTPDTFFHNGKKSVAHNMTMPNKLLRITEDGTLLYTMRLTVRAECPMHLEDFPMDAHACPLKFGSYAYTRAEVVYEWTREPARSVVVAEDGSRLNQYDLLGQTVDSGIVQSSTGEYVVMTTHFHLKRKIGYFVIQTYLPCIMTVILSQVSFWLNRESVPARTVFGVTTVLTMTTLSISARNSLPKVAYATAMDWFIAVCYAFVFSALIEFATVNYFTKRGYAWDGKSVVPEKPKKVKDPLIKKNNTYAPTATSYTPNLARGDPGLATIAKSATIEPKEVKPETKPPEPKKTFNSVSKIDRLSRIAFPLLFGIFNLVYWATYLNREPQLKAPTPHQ
Sequence (P18507 whole entry): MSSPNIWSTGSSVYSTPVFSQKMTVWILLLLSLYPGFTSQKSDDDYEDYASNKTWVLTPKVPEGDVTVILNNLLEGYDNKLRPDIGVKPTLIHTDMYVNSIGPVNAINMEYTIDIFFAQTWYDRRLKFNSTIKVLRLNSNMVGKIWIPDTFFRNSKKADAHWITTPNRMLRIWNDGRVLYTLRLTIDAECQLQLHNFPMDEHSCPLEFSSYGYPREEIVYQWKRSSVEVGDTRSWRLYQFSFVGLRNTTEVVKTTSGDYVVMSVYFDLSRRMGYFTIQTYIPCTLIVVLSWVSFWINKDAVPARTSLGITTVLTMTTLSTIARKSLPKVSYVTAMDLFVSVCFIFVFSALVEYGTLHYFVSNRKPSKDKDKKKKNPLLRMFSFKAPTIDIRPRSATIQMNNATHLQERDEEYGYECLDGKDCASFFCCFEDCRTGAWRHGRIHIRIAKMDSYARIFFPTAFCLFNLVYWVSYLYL
Sequence (P28472 whole entry): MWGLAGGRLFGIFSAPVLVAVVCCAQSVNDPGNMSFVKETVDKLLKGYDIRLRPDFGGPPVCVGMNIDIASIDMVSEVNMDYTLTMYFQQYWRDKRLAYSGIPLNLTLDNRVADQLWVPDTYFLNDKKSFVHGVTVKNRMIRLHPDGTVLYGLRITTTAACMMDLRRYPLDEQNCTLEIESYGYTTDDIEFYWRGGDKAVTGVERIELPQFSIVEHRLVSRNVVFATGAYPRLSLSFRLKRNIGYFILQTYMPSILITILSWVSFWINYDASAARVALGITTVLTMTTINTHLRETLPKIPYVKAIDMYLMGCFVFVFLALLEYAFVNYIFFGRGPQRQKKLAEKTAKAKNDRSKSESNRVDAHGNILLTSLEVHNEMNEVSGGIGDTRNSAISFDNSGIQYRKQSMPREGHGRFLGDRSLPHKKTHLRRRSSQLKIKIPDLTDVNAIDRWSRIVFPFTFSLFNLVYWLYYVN
Assay protocol: Binding affinity towards human alpha-1-beta-3-gamma-2 GABA-A receptor using [3H]Ro-151788 expressed in L(tk-) cells
Could you please mark T for values of Ki below 80 nM and F for values at or above it?

Please review the entries below; each comes with its answer.
Sample smiles: Cc1noc(-c2nnc3c4c(c(OCc5ccccn5)nn23)C2CCC4CC2)n1
Category: T
//
Sample smiles: Cc1cccc(COc2nn3c(-c4cnccn4)nnc3c3c2C2CCC3CC2)n1
Category: F
//
Sample smiles: Cc1nc(-c2nnc3c4c(c(OCc5cccc[n+]5[O-])nn23)C2CCC4CC2)[o+][n-]1
Category: T
//
Sample smiles: Cc1noc(-c2nnc3c4c(c(OCc5cccnc5)nn23)C2CCC4CC2)n1
Category: T
//
Sample smiles: Cc1noc(-c2nnc3c4c(c(OCc5ccccc5C#N)nn23)C2CCC4CC2)n1
Category: T

stdin: Item Cc1cccc(COc2nn3c(-c4ccco4)nnc3c3c2C2CCC3CC2)n1 : Ki beneath 80 nM, strictly?
stdout: F

stdin: Another molecule: Cc1cccc(COc2nn3c(-c4coc(C)n4)nnc3c3c2C2CCC3CC2)n1
stdout: F

stdin: Another molecule: Cc1cccc(COc2nn3c(-c4nc(-c5cccnc5)no4)nnc3c3c2C2CCC3CC2)n1
stdout: F

stdin: Another molecule: Cc1cccc(COc2nn3c(-c4ncn(C)n4)nnc3c3c2C2CCC3CC2)n1
stdout: F

stdin: Another molecule: Cc1cccc(COc2nn3c(-c4cccs4)nnc3c3c2C2CCC3CC2)n1
stdout: F
